Recorded values, source paper PMC2597375.

Biological target: T1, Nrd1_(6–151) S22D (S. cerevisiae, UniProt P53617 6-151, S22D)
T1 sequence: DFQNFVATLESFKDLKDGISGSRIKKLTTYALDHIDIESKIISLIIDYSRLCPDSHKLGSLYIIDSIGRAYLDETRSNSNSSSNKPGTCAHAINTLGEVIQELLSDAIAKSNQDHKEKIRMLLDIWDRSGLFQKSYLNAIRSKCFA
Test: fluorescence polarisation
Where no end group is shown, it is not given here. [ ]: non-standard residue; d: D form. pS = N[C@@H](COP(=O)(O)O)C(=O)O
Property label: Kd (µM)
Report as a plain number; the unit µM is understood.

Param item = Y[pS]PTSPSY[pS]PTSPS [unlabeled double-repeat CTD-Ser2P peptide] ; retrieve measured Kd.
470
